Overview of recorded pIC50 for various molecules
systemUnderTest: HIV-integrase (Human immunodeficiency virus type 1 group M subtype B, UniProt P12497)
Construct: Recombinant integrase (0.26 ng) was incubated with the beads
assayComment: HIV-Integrase Inhibition Activity (SPA strand transfer assay)
testParameters: recombinant integrase, biotin labeled substrate DNA on SPA beads, P33 labeled target DNA; read-out: Activity (IC50 class, HIV-integrase inhibition)
pIC50: −log10 of the molar value.

Cc1cc(CNC(=O)c2nc3n(c(=O)c2O)CCN3c2ccccc2)ccc1F    8.00 to 8.30

Can you look up pIC50 on HIV-integrase (Human immunodeficiency virus type 1 group M subtype B, UniProt P12497) for `CCCCN1CCn2c1nc(C(=O)NCc1ccc(F)cc1C(=O)NC)c(O)c2=O` ?
7.52 to 8.00

State its pIC50 on HIV-integrase (Human immunodeficiency virus type 1 group M subtype B, UniProt P12497): `Cc1cc(CNC(=O)c2nc3n(c(=O)c2O)CCN3Cc2ccccc2)ccc1F`
7.52 to 8.00
